Test name: Antioxidant activity assessed as free radical scavenging activity by lipid peroxidation assay
Type: functional
Items are presented alongside their recorded EC50.
Property measured: EC50 (µM)

Molecule	Property measured	Censoring operator	Endpoint value
COc1ccc2c(c1)OC(c1ccccc1)C(c1ccccc1)C2=O (stereo unspecified)	EC50	=	500
CCOc1ccc2c(c1)OC(c1ccc(Cl)cc1)C(c1ccccc1)C2=O (stereo unspecified)	EC50	=	578
O=C1O[C@H]([C@@H](O)CO)C(O)=C1O	EC50	=	754
COc1ccc2c(c1)OC(c1ccc([N+](=O)[O-])cc1)C(c1ccccc1)C2=O (stereo unspecified)	EC50	>	2500
COc1ccc2c(c1)OCC(c1ccccc1)C2=O (stereo unspecified)	EC50	=	965
CCOc1ccc2c(c1)OC(c1cccc([N+](=O)[O-])c1)C(c1ccccc1)C2=O (stereo unspecified)	EC50	=	193

---

Test name: Cytotoxicity against human PBMC cells after 5 days by MTT assay
Format: cell-based
# CC50 at 120 h per entry

Compound	Censoring operator	CC50 at 120 h (µM)
COc1ccc2c(c1)OC(c1ccc([N+](=O)[O-])cc1)C(c1ccccc1)C2=O (stereo not given)	=	595
COc1ccc2c(c1)OCC(c1ccccc1)C2=O (stereo not given)	=	521
COc1ccc2c(c1)OC(c1ccccc1)C(c1ccccc1)C2=O (stereo not given)	>	2500
CCOc1ccc2c(c1)OC(c1ccc([N+](=O)[O-])cc1)C(c1ccccc1)C2=O (stereo not given)	=	1360
CCOc1ccc2c(c1)OC(c1cccc([N+](=O)[O-])c1)C(c1ccccc1)C2=O (stereo not given)	>	2500

The values you see were collected from ChEMBL document CHEMBL1165893.
